- assay_system: Delta-type opioid receptor (Homo sapiens, UniProt P41143)
- Sequence (P41143 whole entry): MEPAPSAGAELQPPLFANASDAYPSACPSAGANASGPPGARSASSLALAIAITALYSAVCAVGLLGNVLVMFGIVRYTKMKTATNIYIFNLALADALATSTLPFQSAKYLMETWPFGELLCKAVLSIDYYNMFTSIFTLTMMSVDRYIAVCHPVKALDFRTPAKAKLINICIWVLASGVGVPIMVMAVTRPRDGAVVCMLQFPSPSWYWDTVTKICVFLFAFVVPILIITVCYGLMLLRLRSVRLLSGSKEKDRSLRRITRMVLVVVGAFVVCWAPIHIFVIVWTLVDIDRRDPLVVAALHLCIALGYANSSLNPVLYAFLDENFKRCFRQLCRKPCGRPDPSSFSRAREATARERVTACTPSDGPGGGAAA
- experimental_protocol: Displacement of [3H]DPDPE from cloned human delta opioid receptor
Rule: Ki below 0.1 µM gives True. Equal to or above 0.1 µM gives False.

Check out these entries, answers already filled in.
1) Cn1c(N2CCC(c3ccccc3)(c3nccn3Cc3ccccc3)CC2)nc2ccccc21 | False
2) O=C(Nc1ccccc1)N1CCC(c2ccccc2)(c2nccn2Cc2ccccc2)CC1 | True
3) O=C(Nc1ccccc1)N1CCC(c2ccccc2)(c2nccn2C(=O)c2ccccc2)CC1 | False
4) O=C(Nc1ccccc1)N1CCC(c2ccccc2)(c2ncc[nH]2)CC1 | False
5) c1ccc(Cn2ccnc2C2(c3ccccc3)CCN(c3ncccn3)CC2)cc1 | True

Q: is_below(Ki, 0.1 µM) for CS(=O)(=O)N1CCC(c2ccccc2)(c2nccn2Cc2ccccc2)CC1 ?
Result: True

====

- assay_system: Delta-type opioid receptor (Homo sapiens, UniProt P41143)
- experimental_protocol: Agonist potency assessed by [35S]GTP-gammaS binding assay in C6 Glioma cells expressing cloned human delta opioid receptor
Reported EC50 by item:
// units = µM; emit number, no label

The following compounds have reported results that may help.
1) O=C(Nc1ccccc1)N1CCC(c2ccccc2)(c2nccn2Cc2ccccc2)CC1 | 1.48
2) c1ccc(Cn2ccnc2C2(c3ccccc3)CCN(c3nccs3)CC2)cc1 | 0.098
3) c1ccc(Cn2ccnc2C2(c3ccccc3)CCN(c3ncccn3)CC2)cc1 | 0.014

Q: For the compound shown here, O=S(=O)(Nc1ccccc1)N1CCC(c2ccccc2)(c2nccn2Cc2ccccc2)CC1 , give the reported EC50.
Result: 0.832

Q: What would you report for c1ccc(Cn2ccnc2C2(c3ccccc3)CCN(c3nc4ccccc4s3)CC2)cc1 ?
Result: 0.026

====

Collected Ki values appear next to each entry.
- assay_system: UniProtKB P35372
- experimental_protocol: Displacement of [3H]DAMGO from cloned human mu opioid receptor

1. O=C(Nc1ccccc1)N1CCC(c2ccccc2)(c2nccn2Cc2cccc(F)c2)CC1 | > 4.65 µM
2. c1ccc(Cn2ccnc2C2(c3ccccc3)CCN(c3ncccn3)CC2)cc1 | > 4.65 µM
3. c1ccc(Cn2ccnc2C2(c3ccccc3)CCN(c3nc4ccccc4s3)CC2)cc1 | > 4.65 µM
4. O=C(Nc1ccccc1)N1CCC(c2ccccc2)(c2nccn2Cc2ccccc2)CC1 | > 0.465 µM
5. O=C(Nc1ccccc1)N1CCC(c2ccccc2)(c2nccn2Cc2ccc(F)cc2)CC1 | > 4.65 µM

Q: Which Ki value belongs to NC(=O)N1CCC(c2ccccc2)(c2nccn2Cc2ccccc2)CC1 ?
Result: > 4.65 µM

Q: Also, COc1ccc(NC(=O)N2CCC(c3ccccc3)(c3nccn3Cc3ccccc3)CC2)cc1 please.
Result: > 0.465 µM

Q: Follow-up item: CN1CCN(C(=O)N2CCC(c3ccccc3)(c3nccn3Cc3ccccc3)CC2)CC1
Result: > 4.65 µM

Q: Try COc1ccccc1NC(=O)N1CCC(c2ccccc2)(c2nccn2Cc2ccccc2)CC1 next.
Result: > 4.65 µM

Q: // next record O=C(Nc1ccccc1)N1CCC(c2ccccc2)(c2nccn2Cc2ccccn2)CC1
Result: 1.42 µM

====

- assay_system: Opioid receptors; mu & delta (Homo sapiens) (UniProt P41143+P35372)
- Sequence (P35372 whole entry, looked up, one chain of several): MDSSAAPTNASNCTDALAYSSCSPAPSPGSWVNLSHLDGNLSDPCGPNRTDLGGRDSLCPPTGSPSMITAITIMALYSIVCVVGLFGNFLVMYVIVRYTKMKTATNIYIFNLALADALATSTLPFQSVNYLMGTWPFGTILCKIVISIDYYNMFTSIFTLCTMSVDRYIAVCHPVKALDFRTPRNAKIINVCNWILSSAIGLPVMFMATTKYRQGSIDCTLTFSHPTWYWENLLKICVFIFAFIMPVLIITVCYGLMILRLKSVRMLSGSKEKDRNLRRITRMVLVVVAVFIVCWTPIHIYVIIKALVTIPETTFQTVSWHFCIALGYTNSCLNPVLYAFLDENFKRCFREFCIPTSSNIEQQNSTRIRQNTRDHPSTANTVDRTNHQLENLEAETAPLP
- experimental_protocol: Selectivity for cloned human mu opioid receptor over delta opioid receptor
- Assay type: protein assay
measurement_label: Ratio Ki

1) O=C(Nc1ccccc1)N1CCC(c2ccccc2)(c2nccn2C(=O)c2ccccc2)CC1 | > 1.2

Q: Name the recorded Ratio Ki for NC(=O)N1CCC(c2ccccc2)(c2nccn2Cc2ccccc2)CC1 .
Result: > 51

Q: // query: CS(=O)(=O)N1CCC(c2ccccc2)(c2nccn2Cc2ccccc2)CC1
Result: > 101
